target_of_assay: Boi2 SH3 domain (GST-fused) (Saccharomyces cerevisiae)
Construct: Experiments were carried out on sensor chips with GST-fused SH3 domains and GST as a control; made in house
Sequence (P39969 43-107 limits assumed): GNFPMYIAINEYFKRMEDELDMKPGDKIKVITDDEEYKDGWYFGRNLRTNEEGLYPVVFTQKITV
test_name: Surface plasmon resonance (BIAcoreX) dissociation constants of peptides, Boi2 SH3 domain
Format: binding
conditions_used: Figure 4A; SPR BIAcoreX, GST-SH3 coupled to CM5 chip, GST control; peptides in 10 mM HEPES, 150 mM NaCl, 3.4 mM EDTA, 0.005% P20, pH 7.4, 25°C; steady-state model; read-out: dissociation constant, SH3 DOMAINS BOI2
pKd: −log10 of the molar value. No end group written: not given here.
endpoint: pKd

- RPLPQLPNRNNRPV [LAS17 RPLPQLPNRNNRPV]: < 4.00
- NAPERAVPILPPRN [YBR108W NAPERAVPILPPRN]: < 4.00
- RGPPPLPPRANVQP [ACF2 RGPPPLPPRANVQP]: < 4.00
- GTTNRGPPPLPPRA [ACF2 GTTNRGPPPLPPRA]: < 4.00
- DIKTRSVPKIPSIE [DEM1 DIKTRSVPKIPSIE]: < 4.00
